Recorded TGI, one value per entry.
# System: HCT-116 colon
# EXPERIMENT: NCI tumour cell line growth inhibition, 48 h
EXPERIMENTAL_ENDPOINT: TGI (µM)

{"COMPOUND": "COc1ccc(CNc2nc(NCc3ccc(OC)cc3)nc(NC3CCCC3)n2)cc1", "MEASUREMENT_QUALIFIER": "=", "REPORTED": 10.1}
{"COMPOUND": "CC1=NN2C(c3ccc([N+](=O)[O-])cc3)=CSC2=NC(C)(C)C1", "MEASUREMENT_QUALIFIER": ">", "REPORTED": 100}
{"COMPOUND": "O=C1c2cccc(O)c2C(=O)c2c(O)cccc21", "MEASUREMENT_QUALIFIER": ">", "REPORTED": 100}
{"COMPOUND": "NC(Cc1c[nH]c2ccc([N+](=O)[O-])cc12)C(=O)O (stereo not given)", "MEASUREMENT_QUALIFIER": ">", "REPORTED": 100}
{"COMPOUND": "Cc1nc2cc3ccccc3cc2[nH]c1=O", "MEASUREMENT_QUALIFIER": ">", "REPORTED": 100}
{"COMPOUND": "COc1cc([C@@H]2c3cc4c(cc3[C@@H](OC(=O)c3cccc(N)c3)C3COC(=O)[C@@H]32)OCO4)cc(OC)c1O (stereo not given in full)", "MEASUREMENT_QUALIFIER": ">", "REPORTED": 100}
{"COMPOUND": "COC(=O)c1c(O)ccc2c1c1c(n2Cc2ccccc2OC)C(=O)c2ccccc2C1=O", "MEASUREMENT_QUALIFIER": "=", "REPORTED": 16.6}
{"COMPOUND": "CCC(=O)N1C/C(=C/c2ccc(Br)cc2)C(=O)/C(=C/c2ccc(Br)cc2)C1", "MEASUREMENT_QUALIFIER": "=", "REPORTED": 0.311}
{"COMPOUND": "CCOC(=O)CCC(NC(=O)c1ccc(Oc2nc3c(N)cc(C(F)(F)F)cc3nc2-c2ccccc2)cc1)C(=O)OCC (stereo not given)", "MEASUREMENT_QUALIFIER": ">", "REPORTED": 25.2}
{"COMPOUND": "N#CC(C#N)=c1c2ccccc2c(=C(C#N)C#N)c2ccccc12", "MEASUREMENT_QUALIFIER": "=", "REPORTED": 34.4}

###

# Tested on: UACC-257 melanoma
# EXPERIMENT: NCI tumour cell line growth inhibition, 48 h
Where a SMILES comes first, the peptide text is derived from it. The star is where a group is joined. Cbz = O=C(OCc1ccccc1)*; Bn = c1ccc(C*)cc1
TGI values, listed per item

{"COMPOUND": "COc1cc([C@@H]2c3cc4c(cc3[C@@H](OC(=O)c3cccc(N)c3)C3COC(=O)[C@@H]32)OCO4)cc(OC)c1O (stereo partly specified)", "UNITS_SYMBOL": "µM", "MEASUREMENT_QUALIFIER": ">", "TGI": 77.3}
{"COMPOUND": "O=S(=O)(O)c1ccc2c(N=Nc3ccc(S(=O)(=O)O)c4ccccc34)c(O)c(S(=O)(=O)O)cc2c1", "UNITS_SYMBOL": "µM", "MEASUREMENT_QUALIFIER": ">", "TGI": 100}
{"COMPOUND": "COc1cc(-c2nc3ccccc3o2)cc(CN2CCCCC2)c1O", "UNITS_SYMBOL": "µM", "MEASUREMENT_QUALIFIER": "=", "TGI": 5.51}
{"COMPOUND": "COc1ccc(C(=O)c2cc3c(N)c(C(=O)Nc4cccc(Br)c4C)sc3nc2C)cc1", "UNITS_SYMBOL": "µM", "MEASUREMENT_QUALIFIER": ">", "TGI": 100}
{"COMPOUND": "S=C(N/N=C/c1ccccn1)N1CC2CCC(CC2)C1", "UNITS_SYMBOL": "µM", "MEASUREMENT_QUALIFIER": "<", "TGI": 0.039}
{"COMPOUND": "CN1C(=O)C(C(=O)Nc2ccccn2)C2C[C@@]1(C)Oc1ccccc12 (stereo partly specified)", "UNITS_SYMBOL": "µM", "MEASUREMENT_QUALIFIER": ">", "TGI": 100}
{"COMPOUND": "CN(C)CCOc1cc2c(c3ccccc13)-c1ccccc1C2O (stereo unspecified)", "UNITS_SYMBOL": "µM", "MEASUREMENT_QUALIFIER": "=", "TGI": 29.4}
{"COMPOUND": "CC1(C)c2ccccc2N2O[C@@H]3C(=O)N(c4ccccc4)C(=O)[C@@H]3C21c1ccccc1 (stereo partly specified)", "UNITS_SYMBOL": "µM", "MEASUREMENT_QUALIFIER": ">", "TGI": 100}
{"COMPOUND": "OCCCCn1cc(Cn2ncc3c(NCc4ccccc4)ncnc32)nn1", "UNITS_SYMBOL": "µM", "MEASUREMENT_QUALIFIER": ">", "TGI": 100}
{"COMPOUND": "C=CCOCn1cc(F)c(=O)[nH]c1=O", "UNITS_SYMBOL": "µM", "MEASUREMENT_QUALIFIER": ">", "TGI": 100}
{"COMPOUND": "CO[C@]12S[C@@H]3CCCC[C@@]31C(C)(C)C(=O)N2c1ccccc1", "UNITS_SYMBOL": "µM", "MEASUREMENT_QUALIFIER": ">", "TGI": 100}
{"COMPOUND": "OC1CCCC2CCC[N-]C12.OC1CCCC2CCC[N-]C12.[O]=[V][OH] (stereo unspecified)", "UNITS_SYMBOL": "µM", "MEASUREMENT_QUALIFIER": ">", "TGI": 100}
{"COMPOUND": "COC(=O)CC(C(C(=O)OC)C(=O)OC)N1C(=O)OC(c2ccccc2)C1c1ccccc1 (stereo unspecified)", "UNITS_SYMBOL": "µM", "MEASUREMENT_QUALIFIER": ">", "TGI": 100}
{"COMPOUND": "COC(=O)C(Cc1ccc(O)cc1)NC(=O)C(COCc1ccccc1)NC(=O)OCc1ccccc1 (stereo unspecified) (Cbz-Ser(Bn)-Tyr-OMe; configuration not given here)", "UNITS_SYMBOL": "µM", "MEASUREMENT_QUALIFIER": "=", "TGI": 39.5}
{"COMPOUND": "CCOC(=O)CCC(NC(=O)c1ccc(Oc2nc3c(N)cc(C(F)(F)F)cc3nc2-c2ccccc2)cc1)C(=O)OCC (stereo unspecified)", "UNITS_SYMBOL": "µM", "MEASUREMENT_QUALIFIER": ">", "TGI": 31.6}
{"COMPOUND": "COc1c(C(C)(C)C)cc(CC2C(=O)C=CC2=O)cc1C(C)(C)C", "UNITS_SYMBOL": "µM", "MEASUREMENT_QUALIFIER": "=", "TGI": 32.4}
{"COMPOUND": "N#C/C(=C1\\OC(=N)C(c2ccccc2)C1=O)c1ccccc1 (stereo unspecified)", "UNITS_SYMBOL": "µM", "MEASUREMENT_QUALIFIER": "=", "TGI": 59.3}
{"COMPOUND": "COc1ccc2c(c1)C(OC)C1c3c(cc4c(c3-2)OCO4)CCN1C (stereo unspecified)", "UNITS_SYMBOL": "µM", "MEASUREMENT_QUALIFIER": "=", "TGI": 13}
{"COMPOUND": "CCC1(CC)N=C(C(F)(F)F)c2cc(C(=O)C(F)(F)F)c3ccccc3c2N1", "UNITS_SYMBOL": "µM", "MEASUREMENT_QUALIFIER": "=", "TGI": 33.9}
{"COMPOUND": "CCC/C(Cl)=N/OC(NC(=O)OCC)(C(F)(F)F)C(F)(F)F", "UNITS_SYMBOL": "µM", "MEASUREMENT_QUALIFIER": "=", "TGI": 37.7}
{"COMPOUND": "Cc1cc(S(=O)(=O)Nc2nnc3ccccn23)c(S)cc1Cl", "UNITS_SYMBOL": "µM", "MEASUREMENT_QUALIFIER": ">", "TGI": 100}
{"COMPOUND": "COc1ccc(-c2cc(-c3ccc(Cl)cc3)nc(NCCCCNc3ccnc4cc(Cl)ccc34)n2)cc1", "UNITS_SYMBOL": "µM", "MEASUREMENT_QUALIFIER": "=", "TGI": 4.22}
{"COMPOUND": "CS(=O)(=O)c1ccc2nc(-c3ccc(O)cc3)sc2c1", "UNITS_SYMBOL": "µM", "MEASUREMENT_QUALIFIER": "=", "TGI": 38.9}
{"COMPOUND": "O=C1Cc2cc(CCn3cncn3)c(Cl)cc2N1", "UNITS_SYMBOL": "µM", "MEASUREMENT_QUALIFIER": ">", "TGI": 100}
{"COMPOUND": "N#Cc1nc(C#N)c(Sc2ccccc2)c(Sc2ccccc2)c1Sc1ccccc1", "UNITS_SYMBOL": "µM", "MEASUREMENT_QUALIFIER": "=", "TGI": 2.94}
{"COMPOUND": "Cc1c2ccncc2c(C)c2c1sc1ccccc12", "UNITS_SYMBOL": "µM", "MEASUREMENT_QUALIFIER": "=", "TGI": 47.2}
{"COMPOUND": "CCOC(=O)/C(C(=S)NCc1ccccc1)=C(/N)N1CCCC1", "UNITS_SYMBOL": "µM", "MEASUREMENT_QUALIFIER": ">", "TGI": 100}
{"COMPOUND": "COc1ccc2c(O)c(/C=C3\\N=Nc4ncccc43)oc2c1C[C@@H]1CCNC[C@H]1F", "UNITS_SYMBOL": "µM", "MEASUREMENT_QUALIFIER": "=", "TGI": 9.46}
{"COMPOUND": "CS(=O)(=O)OCCCSCCSCCCOS(C)(=O)=O", "UNITS_SYMBOL": "µM", "MEASUREMENT_QUALIFIER": ">", "TGI": 100}
{"COMPOUND": "ClCC[N-]CC[N-]CCCl.ClCC[N-]CC[N-]CCCl.[O-][Cl+3]([O-])([O-])O.[Zn+2]", "UNITS_SYMBOL": "µM", "MEASUREMENT_QUALIFIER": "=", "TGI": 63.2}
{"COMPOUND": "CCCCCCCCCCCCN=C(N)c1ccc(N2CCN(c3ccc(C(N)=NCCCCCCCCCCCC)cc3)CC2)cc1", "UNITS_SYMBOL": "µM", "MEASUREMENT_QUALIFIER": ">", "TGI": 50}
{"COMPOUND": "CCOc1ccc(C(C[N+](=O)[O-])Sc2ccccc2N)cc1 (stereo unspecified)", "UNITS_SYMBOL": "µM", "MEASUREMENT_QUALIFIER": "=", "TGI": 16.7}
{"COMPOUND": "C=C1C(=O)O[C@H]2[C@H]1CC/C(COC(=O)/C=C\\C(=O)NCc1ccc(Cn3c(=O)sn(CCI)c3=O)cc1)=C\\CC[C@@]1(C)O[C@@H]21", "UNITS_SYMBOL": "µM", "MEASUREMENT_QUALIFIER": "=", "TGI": 5.97}
{"COMPOUND": "CSc1ccc(NC(=O)C2c3[nH]c4ccccc4c3C3CCC(C(C)(C)C)CC3C2C(=O)O)cc1 (stereo unspecified)", "UNITS_SYMBOL": "µM", "MEASUREMENT_QUALIFIER": ">", "TGI": 100}
{"COMPOUND": "COc1ccc(C2C(C#N)=C(N)Oc3c2sc2c(Br)cccc32)cc1 (stereo unspecified)", "UNITS_SYMBOL": "µM", "MEASUREMENT_QUALIFIER": "=", "TGI": 32.7}
{"COMPOUND": "CCCCCCCCCCNCCSS(=O)(=O)O", "UNITS_SYMBOL": "µM", "MEASUREMENT_QUALIFIER": "=", "TGI": 22.4}
{"COMPOUND": "CC(=O)Oc1c2ccsc2c(OC(C)=O)c2ccsc12", "UNITS_SYMBOL": "µM", "MEASUREMENT_QUALIFIER": "=", "TGI": 0.4}
{"COMPOUND": "C/C(=N\\Nc1nc2ccccc2[nH]1)c1cnccn1", "UNITS_SYMBOL": "µM", "MEASUREMENT_QUALIFIER": ">", "TGI": 31}
{"COMPOUND": "Cc1ccc(S(=O)(=O)N/N=C2\\CCC3(O)CC2(C)CCC2C3CC2(C)C)cc1 (stereo unspecified)", "UNITS_SYMBOL": "µM", "MEASUREMENT_QUALIFIER": ">", "TGI": 100}
{"COMPOUND": "COc1ccc(CNc2nc(NCc3ccc(OC)cc3)nc(NC3CCCC3)n2)cc1", "UNITS_SYMBOL": "µM", "MEASUREMENT_QUALIFIER": ">", "TGI": 100}
{"COMPOUND": "CC(NC1=CC(=O)c2cccnc2C1=O)C(O)c1ccccc1 (stereo unspecified)", "UNITS_SYMBOL": "µM", "MEASUREMENT_QUALIFIER": "=", "TGI": 2.84}
